# credit: patent US20260258115A1

molecular target: T1, RSV postfusion F (postF), subtype A (respiratory syncytial virus, subtype A, UniProt P03420 26-513); test: BLI, IgG
T1 construct: also called F ΔFP; Postfusion subtype A
PROPERTY_LABEL: binding result

Known results for binders:
| BINDER | DATA_VALUE |
| --- | --- |
| ADI-14419 (antibody, V domains shown, also called Ab 85) VH: EVQLVESGGGVVQPGGSLRLSCAASGFSFSDYGMHWVRQAPGKGLEWVSFIRYDASYKFYADSVKGRFTISRDNAKNTLYLQINSLRAEDTAVYYCAKEIYGSGSYYYYYYAIDVWGQGTTVTVSS VL: EIVLTQSPGTLSLSPGERATLSCRASQSVSSSHLAWYQQKPGQAPRLLIYGASSRATGIPDRFSGSGSGTDFTLTISRLEPEDFAVYYCQQYFRSAWAFGQGTKVDIK | no binding |
| ADI-21045 (antibody, V domains shown) VH: EVQLVESGGGLVKPGGSLRLSCLASGFKFRSYSMNWVRQAPGTGLVWVASISASSSFIFYADSLKGRFTISRDNDKNSLYLQMNSLTVEDTAVYYCVRDMSGISSGGKTFDYWGQGTLVTVSS VL: QSVLTQPPSVSGAPGQRVTISCTGSSSNLGAGYDVQWYQQLPGTAPKLLIYGNNNRPSGVPDRFSGSKSGTSASLAITGLRAEDEADYYCQSYDTSPVFGGGTKLTVL | no binding |
| ADI-14400 (antibody, V domains shown, also called Ab 66) VH: QVQLVQSGGGVVQPGRSLRLSSAASGFTFSSYAMHWVRQAPGKGLEWVAVISHDGSKYYADSVKGRFTISRDNSKSTLNLQMNSLRPEDTAVYYCARGGDVRLYDDSNGYHYDTYYFDYWGQGTLVTVSS VL: EIVLTQSPSSLSASVGDRVTITCRASQGIRNDLGWYQQKPGKAPKLLIYAASTLQSGVPSRFSGSGSGTDFTLTISSLQPEDFATYYCLQDYNYPLTFGGGTKVEIK | no binding |
| ADI-20973 (antibody, V domains shown) VH: EVQLLESGGGLVKPAGSLRLSCAASGFSFSSYYMNWIRQAPGKGLEWVSDISGGSSYTNYADSVKGRFTVSRDNAKNSVYLQMNSLRGEDTAVYYCARGASTAATYTPTFDYWGQGILVTVSS VL: QPVLTQPPSVSGAPGQRVTISCTGSSSNIGAGYDVHWYQQLPGTAPKLLMFGNNNRPSGVPDRFSGSKSGTSASLAITGLRPEDEADYYCQSYDRRLTVVFGGGTKLTVL | no binding |

Shifting focus to the binder that follows.
Q) Query (binder): ADI-14399 (antibody, V domains shown, also called Ab 65) VH: EVQLLESGPGLVKPSQTLSLTCAVSGGSINSGRYSWSWIRQPPGKGLEWIGYIYYSGTTYYNPSLESRVTISRDTSKNQFSLNLSSVTAADTAVYYCARTNSADSYASGSHYIRPQYFDFWGQGTLVTVSS VL: DIQLTQSPATLSLSPGERATLSCRASQSVSSYLAWYQQKPGQAPRLLIYGASNRATGIPARFSGSGSGTDFTLTISRLEPEDFAVYYCQQRSNWLTFGGGTKVEIK ; field requested: binding result
A) no binding
